System: Trichoderma virens ATCC 9645
Test: growth yield (OD600) with compound + IPBC relative to untreated control; higher = less growth inhibition
Settings: compound concentration: 100 uM; IPBC concentration: 200 ng/ml; 72 h
Where a name gives a salt, the structure may show the parent alone. Hit rate of the full screen: of about 1,300 compounds, about 130 (10%) showed an effect of 50% or more. The entries come from a sample that favours strong results as a whole.
MEASURED QUANTITY: growth yield (%)
State just the number; it will be interpreted in %.

Check out these entries, answers already filled in.
| MOLECULE | growth yield (%) |
| --- | --- |
| O=C(O)CCc1nc(-c2ccccc2)c(-c2ccccc2)o1 [Oxaprozin] + CCCCNC(=O)OCC#CI [3-iodo-2-propynyl butylcarbamate (IPBC)] | 85.5 |
| NC(=O)N1c2ccccc2CC(=O)c2ccccc21 [Oxcarbazepine] + CCCCNC(=O)OCC#CI [3-iodo-2-propynyl butylcarbamate (IPBC)] | 92.9 |
| CCCCOc1ccc(C(=O)CCN2CCCCC2)cc1 [Dyclonine hydrochloride] + CCCCNC(=O)OCC#CI [3-iodo-2-propynyl butylcarbamate (IPBC)] | 90.8 |
| O=C(O)Cc1sc(-c2ccccc2)nc1-c1ccc(Cl)cc1 [Fentiazac] + CCCCNC(=O)OCC#CI [3-iodo-2-propynyl butylcarbamate (IPBC)] | 77.1 |

Lab note: next molecule to report on.
get_value(item= CN1[C@@H]2C[C@@H](OC(=O)[C@H](CO)c3ccccc3)C[C@H]1[C@@H]1O[C@@H]12 [Scopolamine hydrochloride] + CCCCNC(=O)OCC#CI [3-iodo-2-propynyl butylcarbamate (IPBC)] , readout=growth yield) returns 94.1
